Attribute: TGI
# System: A549 NSCLC
# protocol details: NCI tumour cell line growth inhibition, 48 h
Number only, in µM; omit the unit.

O=c1c2cc(Cl)ccc2n2nnc3ccc(NCCNCCO)c1c32; 2.58

# return recorded TGI for input CN(C)CCCN1C(=O)N(CCCN(C)C)c2c3cc(O)ccc3nc3c([N+](=O)[O-])ccc1c23
39.6

---

Reported TGI values for a set of compounds
# System: UACC-257 melanoma
# protocol details: NCI tumour cell line growth inhibition, 48 h

CCOC(=O)c1c(C)n(CCN2CCN(C)CC2)c2ccc(OC)cc12; 31.1 µM
COS(=O)CCOC(=O)c1ccccc1SSc1ccccc1C(=O)OCCS(=O)OC (stereo not given); 38.8 µM
CC(C)=CCC/C(C)=C/CCC1(C)C2COC(=O)C21 (stereo not given); > 100 µM
Cn1cnc([N+](=O)[O-])c1Sc1nncc2[nH]cnc12; > 100 µM

Quote TGI reported for Cc1ccc2c(=O)c3c(O)c4c(cc3n(C)c2c1)OC(C)(C)C=C4 please.
> 10 µM

---

# System: DU-145 prostate
# protocol details: NCI tumour cell line growth inhibition, 48 h
observable: TGI

Below, 3 molecules whose answers are already recorded.
COc1cc(SC)ccc1C(=O)N1CCCC(C)C1 (centres undefined); > 100 µM
CCN(CC)c1ccc(/C=N\NC(=O)c2cccc(Nc3ccnc(C(F)(F)F)c3)c2)c(O)c1; > 100 µM
Cc1cc2nnn(C3CCCO3)c2cc1C (centres undefined); > 100 µM

Shift focus to the following entry.
Output measured TGI for this item: CCCCC[C@@H]1OC(=O)[C@@]2(CC3c4ccccc4C2c2ccccc23)[C@H]1C(=O)OC
> 100 µM

---

TGI values by entry
# Test system: CCRF-CEM leukemia
# protocol details: NCI tumour cell line growth inhibition, 48 h

NC(=O)CN1CCN(c2nc(N3CCCC3)c3nc(Cl)c(NCc4ccccc4)nc3n2)CC1; > 50 µM
NC(=NC1C2CC3CC(C2)CC1C3)Nc1ccc(I)cc1 (configuration not stated); > 100 µM
Cc1ccc(NC(=O)NC23CC4CC(CC(F)(C4)C2)C3)cc1; > 100 µM
CCCC/C(C)=N/NC(N)=S; > 100 µM
c1csc(-c2csc(-c3cccs3)c2)c1; > 100 µM

Tell me its TGI given Cc1ccc(Nc2ccnc(Nc3cccc(C(N)=O)c3)n2)cc1O as the entry.
> 25 µM

Report measured TGI; entry is NC(Cc1ccccc1)C(=O)O (configuration not stated)
> 100 µM

For N#Cc1nc(Cc2cccs2)oc1N , write its TGI.
> 100 µM

Report TGI for Cc1[nH]nc(C(=O)N/N=C/c2cccs2)c1N=NN(C)C
> 100 µM

Identify TGI associated with the molecule C[C@@H](CC(O)C(O)C(C)(C)O)C1CCC23CC12CCC1[C@@]2(C)CCC(=O)C(C)(C)C2CC(OC2OC(CO)C(O)C(O)C2O)[C@]13C (some centres not stated)
> 10 µM

Output TGI of CC1=C(C(=O)OC(C)C)C(c2cccc([N+](=O)[O-])c2)C(C(=O)OC(CO[N+](=O)[O-])CO[N+](=O)[O-])=C(C)N1 (configuration not stated)
> 20.1 µM

Give recorded TGI. O=[N+]([O-])c1ccc(-c2nc3ccccc3o2)cc1
> 100 µM

---

List of TGI values.
# Tested on: NCI-H23 lung
# protocol details: NCI tumour cell line growth inhibition, 48 h

Example molecules with recorded TGI:
NC(Cc1ccccc1)C(=O)O (configuration not stated); > 100 µM
C/C(=N\N=C(N)N)c1sc(-c2nc(C)c(/C(C)=N/N=C(N)N)s2)nc1C; > 100 µM
O=C(O)C1C2CC3CC2CC31 (configuration not stated); > 100 µM
OCC(CO)CC1COc2ccccc2O1 (configuration not stated); > 10 µM

Given O=C(NNc1ccc([N+](=O)[O-])cc1)C1OC(CO)C(O)C1O (configuration not stated) , respond with its TGI.
> 100 µM

// fetch TGI given entry CC(=O)N/N=C1\NN(C(C)=O)C2(S1)C(=O)Nc1ccccc12 (configuration not stated)
> 100 µM

Read off the recorded TGI for CCCCCCCCCC[C@@H](O)[C@H]1CC[C@@H]([C@H]2CC[C@H]([C@H](O)CCCCCCCCCC[C@@H]3CC(CC(C)=O)C(=O)O3)O2)O1 (some centres not stated)
> 100 µM

Please report the measured TGI for COC(=N)/C(=C1\OC(N)=C(c2ccc(Cl)cc2)C1=O)c1ccc(Cl)cc1
> 100 µM

Tell us which TGI value is on record for O=C1CCCC2COc3ccc(O)c1c32 (configuration not stated)
> 100 µM

Look up and state reported TGI for COc1ccc(C2CC(C)=Nc3c([nH]c(=S)[nH]c3=O)N2)cc1 (configuration not stated)
55.6 µM

Answer with the recorded TGI for the molecule listed here: c1csc(-c2csc(-c3cccs3)c2)c1
63.1 µM

Give the reported value of TGI for this record: Cc1cc(C(=O)NCCN(C)C)c2nc3ccccc3nc2c1
23.6 µM

Return value of TGI for input CCC[CH2][Ge]([CH2]CCC)([CH2]CCC)[O]C(=O)CCl , no commentary.
12.5 µM

Return reported TGI. Input molecule: Cn1cc(/C=C2\C(=O)Nc3cccnc32)c2ccccc21
> 25 µM

State its TGI for this molecule: NC(=O)Cn1c(=O)[nH]c(=O)c2[nH]cnc21
> 100 µM

Return value of TGI for input Clc1cccc(Cl)c1C1ON=C(c2ccccc2)N1C12CC3CC(CC(C3)C1)C2 (configuration not stated) , no commentary.
> 100 µM

Specify reported TGI for the molecule shown: CCCCCCCCCCCOCCC1C(C(C)OCCN2CCCC2)OC2OC(C)(C)OC21 (configuration not stated)
11 µM

# return recorded TGI for input CCCCC[C@@H]1OC(=O)[C@@]2(CC3c4ccccc4C2c2ccccc23)[C@H]1C(=O)OC
> 100 µM

// fetch TGI given entry CC(C)(CN1CCCCC1)C(=O)CC(SCCS(=O)(=O)O)c1ccc(Cl)c(Cl)c1 (configuration not stated)
15.8 µM

---

# Test system: M19-MEL melanoma
# protocol details: NCI tumour cell line growth inhibition, 48 h
Readings of TGI for the listed compounds

In the examples that follow, each entry is paired with its recorded TGI.
S=C1OC2C3C4CC5C3C(O1)C1C5C4C21 (stereo unspecified); > 100 µM
C(=C1/CCCCC([n+]2ccccc2)=N1)/c1ccccc1; > 100 µM
Cc1ccc(NC(=O)CCC(=O)C(C#N)c2ccc(Cl)cc2)cc1C (stereo unspecified); > 100 µM
O.O=[Se](=O)(O)O.[NH-]C1CCCCC1[NH-].[Pt+2] (stereo unspecified); > 75.6 µM
CN(c1ccccc1)c1c(-c2ccccc2)c(=O)oc2c1ccc1occc12; > 100 µM

Attention now turns to another entry.
Output TGI of COC(=N)/C(=C1\OC(N)=C(c2ccc(Cl)cc2)C1=O)c1ccc(Cl)cc1
> 100 µM

---

// reported GI50 per item
# Tested on: OVCAR-4 ovarian
# protocol details: NCI tumour cell line growth inhibition, 48 h

Fc1ccc(-c2c(-c3ccncc3)n(CCN3CCOCC3)c3cccnc23)cc1; > 25 µM
O=C(N/N=C\c1cc(Cl)ccc1O)N/N=C/c1cc(Cl)ccc1O; 0.871 µM

# context switch: different compound, same GI50
Specify reported GI50 for the compound shown: O.O=[Se](=O)(O)O.[NH-]C1CCCCC1[NH-].[Pt+2] (stereo not drawn)
11.6 µM

---

# maps each entry to its GI50
# Test system: SW-620 colon
# protocol details: NCI tumour cell line growth inhibition, 48 h

Identify measured GI50 obtained with SW-620 colon for COc1cc(C(=O)c2c(-c3ccccc3)oc3ccccc23)cc(OC)c1O .
960 nM

Give GI50; test system SW-620 colon; compound COCCOCCOCCOCCOc1ccc2c(c1)C(=O)c1nc3ncccc3c(=O)n1-2
1150 nM

---

Entries and their TGI
# Tested on: MALME-3M melanoma
# protocol details: NCI tumour cell line growth inhibition, 48 h

COc1cc(Nc2ncc(-c3ccccc3)o2)cc(OC)c1OC; > 25 µM

Name the recorded TGI of the item COc1ccc(/C(Cl)=C(\C=O)c2ccc(Cl)cc2)cc1 in your answer.
> 100 µM

Assign TGI to the following record: Cc1ccc(C)c(NC(=O)CCc2n[nH]c(=S)o2)c1
> 100 µM

---

# Test system: SF-539 CNS
# protocol details: NCI tumour cell line growth inhibition, 48 h
We begin with a simple list: items and their reported TGI.

O=C(NC(Cc1c[nH]c2ccccc12)C(=O)O)/C(=C/c1ccccc1)NC(=O)c1ccccc1 (stereo not given); > 100 µM
COc1ccc(CNc2cnc3cc(N)ccc3n2)cc1OC; > 100 µM

Note TGI for the molecule shown: COc1cccc2c1C(=O)c1c(O)c3c(c(O)c1C2=O)C[C@](O)(C(=O)CO)CC3OC1CC(N)C(OC2CCCCO2)C(C)O1 (stereo not given in full)
1.41 µM

Please report the measured TGI for C(=C1/CCCCC([n+]2ccccc2)=N1)/c1ccccc1
> 100 µM

Dear colleague, please send me the reported TGI for O=C1CCCc2c(O)ccc(O)c21 when you can.
> 100 µM
